Molecular target: α-glucosidase
Test: Enzyme kinetic study, Lineweaver–Burk double-reciprocal plots
Details: from plot of slope (Km/Vm) versus inhibitor concentration; PNPG substrate; read-out: Ki value (inhibitor binding with free enzyme)
Procedure: The inhibition type of the enzyme was assayed by Lineweaver–Burk plots. A series of diluted inhibitor solutions was prepared, at constant α-glucosidase concentration (0.7 U/ml). The inhibition rates were measured by the above method with different concentrations of PNPG (1, 0.5, 0.4, 0.3, 0.25, and 0.2 mM). […] The kinetic data were expressed by Lineweaver–Burk double-reciprocal plots. […] Thus, these compounds bind not only with the free α-glucosidase but also with the α-glucosidase-PNPG complex. […]
Test Readout: pKi
Give bare numbers, as −log10 of the molar value.

Some compounds with recorded pKi:
Compound	Measured On	pKi
CCCCCCCCCCCCCCCC1=C(O)C(=O)C=C(O)C1=O [Compound 10d]	α-glucosidase	5.91
CC(C)CCCC(C)CCC1=C(O)C(=O)C=C(O)C1=O (stereo not drawn) [Compound 12d]	α-glucosidase	5.43

Continue with the next compound.
Ask: Reported pKi for O=C1C=C(O)C(=O)C(CCCCCCCc2ccccc2)=C1O [Compound 15d] : what is it?
Result: 5.62
